Consider the following compounds; for each one, report its IC50.
# target_or_test_system: human P2X4 (Homo sapiens)
# Sequence (Q99571 1-388): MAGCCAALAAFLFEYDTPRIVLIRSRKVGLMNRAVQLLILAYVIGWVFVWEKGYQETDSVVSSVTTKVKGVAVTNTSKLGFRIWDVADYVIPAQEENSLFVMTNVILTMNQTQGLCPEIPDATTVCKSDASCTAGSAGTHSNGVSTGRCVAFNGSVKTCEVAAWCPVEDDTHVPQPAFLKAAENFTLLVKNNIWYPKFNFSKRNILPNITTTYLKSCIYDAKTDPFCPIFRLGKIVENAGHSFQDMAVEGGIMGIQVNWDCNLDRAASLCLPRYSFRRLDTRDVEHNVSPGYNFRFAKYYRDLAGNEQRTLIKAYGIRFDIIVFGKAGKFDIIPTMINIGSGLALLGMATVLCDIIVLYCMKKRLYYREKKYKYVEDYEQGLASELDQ
# assay_explanation: Human P2X4 HEK Cell FLIPR Assay
# Assay type: cell-based
# run_conditions: HEK293 cells, agonist Bz-ATP at EC80; individual values listed where some fall outside detection range
One number for each entry, in nM.

As a guide, the following entries are already answered.
* NS(=O)(=O)c1cc(NC(=O)Cc2ccccc2F)ccc1-n1cnc(C(F)(F)F)n1 | 557
* Cc1ccc(Cl)c(CC(=O)Nc2ccc(-n3cc(C#N)cn3)c(S(N)(=O)=O)c2)c1 | 37
* COc1ccccc1CC(=O)Nc1ccc(-n2cc(C(F)(F)F)cn2)c(S(N)(=O)=O)c1 | 263
* N#Cc1cnn(-c2ccc(NC(=O)Cc3cccc(F)c3)cc2S(N)(=O)=O)c1 | 248
* CC(C)(O)c1cnn(-c2ccc(NC(=O)Cc3ccccc3F)cc2S(N)(=O)=O)c1 | 1890

Each compound below has a reported value. Please supply its IC50.
1. NS(=O)(=O)c1cc(NC(=O)Cc2ccccc2Cl)ccc1-n1cnc(C(F)F)n1
2. NS(=O)(=O)c1cc(NC(=O)Cc2cccc(F)c2F)ccc1-n1cc(F)cn1
3. N#Cc1cnn(-c2ccc(NC(=O)Cc3ccc(O)cc3)cc2S(N)(=O)=O)c1

Return:
1: 288; 2: 108; 3: 325

---

# target_or_test_system: human P2X4 (Homo sapiens)
# Sequence (Q99571 1-388): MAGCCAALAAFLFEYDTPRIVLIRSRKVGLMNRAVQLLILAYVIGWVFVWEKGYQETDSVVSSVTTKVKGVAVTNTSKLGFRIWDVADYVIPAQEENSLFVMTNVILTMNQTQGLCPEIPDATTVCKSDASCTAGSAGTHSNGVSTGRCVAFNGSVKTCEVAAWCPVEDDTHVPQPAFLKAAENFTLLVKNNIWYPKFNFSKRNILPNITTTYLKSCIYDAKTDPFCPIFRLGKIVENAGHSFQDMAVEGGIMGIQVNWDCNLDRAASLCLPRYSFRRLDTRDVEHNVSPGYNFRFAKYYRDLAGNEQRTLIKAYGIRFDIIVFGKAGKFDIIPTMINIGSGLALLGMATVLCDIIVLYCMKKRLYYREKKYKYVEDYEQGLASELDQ
# assay_explanation: Human P2X4 HEK Cell FLIPR Assay
# Assay type: cell-based
# run_conditions: HEK293, HEK293 cells, agonist Bz-ATP at EC80; percentage of maximal inhibition; read-out: Human P2X4 HEK Cells (FLIPR Assay) avg Efficacy [%]
reported_property: Emax (%)
Answers are plain numbers, in %.

- NS(=O)(=O)c1cc(NC(=O)Cc2ccc(C(F)F)cc2)ccc1-n1cc(C(F)(F)F)nn1: 90
- Cc1cc(F)c(Br)cc1CC(=O)Nc1ccc(-n2cc(F)cn2)c(S(N)(=O)=O)c1: 78
- NS(=O)(=O)c1cc(NC(=O)Cc2cccnc2Cl)ccc1-n1cc(Cl)cn1: 83
- NS(=O)(=O)c1cc(NC(=O)Cc2ccc(O)cc2)ccc1-n1cc(Cl)cn1: 97
- Cc1ncc(-c2ccc(NC(=O)Cc3ccccc3Cl)cc2S(N)(=O)=O)cn1: 82

Each compound below has a reported value. Please supply its Emax.
1. Cc1ccc(Cl)c(CC(=O)Nc2ccc(-n3cc(F)cn3)c(S(N)(=O)=O)c2)c1
2. COCCn1cc(-c2ccc(NC(=O)Cc3c(F)cccc3Cl)cc2S(N)(=O)=O)cn1
3. NS(=O)(=O)c1cc(NC(=O)Cc2ccccc2Cl)ccc1-c1cnn(CC2CC2(Cl)Cl)c1 (centres unmarked)

Return:
1: 93; 2: 87; 3: 87
